Assay: Metabolic stability in human liver microsomes assessed as intrinsic clearance
Assay type: ADME, Microsome
Conditions: read-out: CLH
Items are presented alongside their recorded microsomal CLint.
Quantity Kind: microsomal CLint (µL/min/mg)

>>> reported("FC(F)(F)c1c(Cl)ccc(-n2ccnn2)c1Cl")
1.5
>>> reported("OCc1cn(-c2ccc(Cl)c(C(F)(F)F)c2Cl)nn1")
1.7
>>> reported("OCc1cn(-c2ccc(Cl)c(Cl)c2)nn1")
12

---

Molecular target: Palmitoleoyl-protein carboxylesterase NOTUM (Homo sapiens, UniProt Q6P988, C330S)
Sequence (Q6P988 20-496 C330S limits assumed): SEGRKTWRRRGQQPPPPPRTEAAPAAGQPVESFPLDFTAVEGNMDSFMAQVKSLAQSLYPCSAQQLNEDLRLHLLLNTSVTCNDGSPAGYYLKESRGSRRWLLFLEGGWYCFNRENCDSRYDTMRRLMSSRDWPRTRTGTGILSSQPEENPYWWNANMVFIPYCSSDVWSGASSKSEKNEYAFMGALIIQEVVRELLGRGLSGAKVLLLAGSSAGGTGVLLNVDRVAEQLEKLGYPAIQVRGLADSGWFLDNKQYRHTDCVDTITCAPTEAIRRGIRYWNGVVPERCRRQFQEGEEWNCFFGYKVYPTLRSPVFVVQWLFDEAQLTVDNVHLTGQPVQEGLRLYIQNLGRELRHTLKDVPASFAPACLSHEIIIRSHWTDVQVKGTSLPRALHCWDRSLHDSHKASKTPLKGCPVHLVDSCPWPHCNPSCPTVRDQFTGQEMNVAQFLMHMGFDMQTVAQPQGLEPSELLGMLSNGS
Assay: Inhibition of human Notum (S81 to T451 residues) Cys330Ser mutant expressed in HEK293S cells using OPTS as substrate incubated for 40 mins by fluorescence based assay
Quantity Kind: IC50

>>> reported("OCc1cn(-c2ccc(Cl)c(C(F)(F)F)c2)nn1")
"0.065 µM"
>>> reported("OCc1cn(-c2ccccc2F)nn1")
"64 µM"
>>> reported("OCc1cn(-c2cccc(Cl)c2)nn1")
"6.3 µM"
>>> reported("OCc1cn(-c2ccc(C(F)(F)F)cc2)nn1")
"8.8 µM"
>>> reported("OCc1cn(-c2cccc(Cl)c2Cl)nn1")
"5.1 µM"
>>> reported("OCc1cn(-c2ccc3c(c2)OCCO3)nn1")
"32 µM"
>>> reported("OCc1cn(-c2ccc3c(c2)OCO3)nn1")
"28 µM"

---

Assay: Metabolic stability in mouse hepatocyte assessed as intrinsic clearance measured per 10^6 cells
Format: ADME, cell-based
Conditions: hepatocytes, read-out: CLH
Quantity Kind: hepatocyte CLint (µL/min/1e6 cells)

>>> reported("FC(F)(F)c1c(Cl)ccc(-n2ccnn2)c1Cl")
19.4
>>> reported("OCc1cn(-c2ccc(Cl)c(C(F)(F)F)c2Cl)nn1")
48

---

Experiment: Metabolic stability in rat liver microsomes assessed as intrinsic clearance
Assay type: ADME, Microsome
Details: read-out: CLH
Quantity Kind: microsomal CLint

>>> reported("FC(F)(F)c1c(Cl)ccc(-n2ccnn2)c1Cl")
"< 9.6 µL/min/mg"

---

Test: in vivo
Conditions: Sprague-Dawley, rat, brain, po, 10 mg/kg
Quantity Kind: AUC(0-inf) (ng·h/mL)

>>> reported("FC(F)(F)c1c(Cl)ccc(-n2ccnn2)c1Cl")
46100

---

The following molecules are listed with their measured IC50 values.
Biological target: Palmitoleoyl-protein carboxylesterase NOTUM (Homo sapiens, UniProt Q6P988, C330S)
Assay: Inhibition of human Notum (S81 to T451 residues) Cys330Ser mutant expressed in HEK293S cells using OPTS as substrate incubated for 40 mins by fluorescence based assay
Quantity Kind: IC50 (µM)

>>> reported("OCc1cn(-c2ccc(Cl)cc2Cl)nn1")
5.6
>>> reported("OCc1cn(-c2cc(Cl)cc(Cl)c2)nn1")
2.4
>>> reported("OCc1cn(-c2cc(Cl)ccc2Cl)nn1")
23
>>> reported("Cc1ccc(-n2cc(CO)nn2)cc1C")
0.73
>>> reported("OCc1cn(-c2ccc(C(F)(F)F)c(Cl)c2)nn1")
1
>>> reported("OCc1cn(-c2cccc(C(F)(F)F)c2)nn1")
2.3
>>> reported("OCc1cn(-c2ccccc2Cl)nn1")
32
>>> reported("OCc1cn(-c2ccc(Cl)c(Cl)c2)nn1")
0.5

---

The following molecules are shown together with reported microsomal CLint values.
Test: Metabolic stability in mouse liver microsomes assessed as intrinsic clearance
Assay type: ADME, Microsome
Details: read-out: CLH
Quantity Kind: microsomal CLint (µL/min/mg)

>>> reported("OCc1cn(-c2ccc(Cl)c(C(F)(F)F)c2Cl)nn1")
6.7
>>> reported("FC(F)(F)c1c(Cl)ccc(-n2ccnn2)c1Cl")
3.2
>>> reported("[2H]c1nnn(-c2ccc(Cl)c(C(F)(F)F)c2Cl)c1[2H]")
5.4

meta.source: ChEMBL document CHEMBL5154906
